- Test system: Pseudomonas aeruginosa PAE19-3
- Assay type: cell-based
- CONDITION LABEL: PAE19-3
Bridge positions count the residues as written; N and C are the ends. Square brackets hold non-standard residues; d marks the D form. Peptide text beside a SMILES is read from it. * marks the point of attachment. Dab(CH2SO3H) = N[C@@H](CCNCS(=O)(=O)O)C(=O)O; Heptanoyl(6-Me) = CC(C)CCCCC(=O)*; Nonanoyl = CCCCCCCCC(=O)*; X1 = CC[C@H](C)CCCCC(=O)*; Dab = NCC[C@H](N)C(=O)O; Dap = NC[C@H](N)C(=O)O
EXPERIMENTAL ENDPOINT: MIC

COMPOUND	TEST TARGET	EXPERIMENTAL ENDPOINT	MEASUREMENT
CCCCCCCCC(=O)N[C@@H](CCN)C(=O)N[C@H](C(=O)N[C@H](CO)C(=O)N[C@H]1CCNC(=O)[C@H]([C@@H](C)O)NC(=O)[C@H](CCN)NC(=O)[C@H](CN)NC(=O)[C@H]([C@@H](C)O)NC(=O)[C@@H](Cc2ccccc2)NC(=O)[C@H](CCN)NC1=O)[C@@H](C)O [Compound 75] (Nonanoyl-[Dab]T[dS][Dab][Dab][dF]T[Dap][Dab]T; lactam 4-C)	Pseudomonas aeruginosa PAE19-3	MIC	64 µg/mL
CC(C)CCCCC(=O)N[C@@H](CCN)C(=O)N[C@H](C(=O)N[C@H](CO)C(=O)N[C@H]1CCNC(=O)[C@H]([C@@H](C)O)NC(=O)[C@H](CCNCS(=O)(=O)O)NC(=O)[C@H](CCN)NC(=O)[C@H]([C@@H](C)O)NC(=O)[C@@H](Cc2ccccc2)NC(=O)[C@H](CCN)NC1=O)[C@@H](C)O [Compound 111] ({Heptanoyl(6-Me)}-[Dab]T[dS][Dab][Dab][dF]T[Dab][Dab(CH2SO3H)]T; lactam 4-C)	Pseudomonas aeruginosa PAE19-3	MIC	0.5 µg/mL
CC[C@H](C)CCCCC(=O)N[C@@H](CCN)C(=O)N[C@H](C(=O)N[C@@H](CN)C(=O)N[C@H]1CCNC(=O)[C@H]([C@@H](C)O)NC(=O)[C@H](CCN)NC(=O)[C@H](CCN)NC(=O)[C@H]([C@@H](C)O)NC(=O)[C@@H](Cc2ccccc2)NC(=O)[C@H](CCN)NC1=O)[C@@H](C)O [Compound 6] (X1-[Dab]T[Dap][Dab][Dab][dF]T[Dab][Dab]T; lactam 4-C)	Pseudomonas aeruginosa PAE19-3	MIC	0.125 µg/mL
